molecular target: human recombinant HDAC6 (Homo sapiens); test: HDAC6 enzyme activity inhibition (fluorimetric, in vitro); details: samples at 0.1, 1, 10, 100 and 1000 nM
pIC50: −log10 of the molar value.
measuredParameter: pIC50

                      structuresmilesstring                         targetundertest  observedmeasurement
0  N=S1(=O)CCN(C(=O)N(Cc2ccc(-c3nnc(C(F)F)o3)cc2F)c2ccc(-c3ccco3)cc2)CC1  human recombinant HDAC6 (Homo sapiens)                 7.19
1  N=S1(=O)CCN(C(=O)N(Cc2ccc(-c3nnc(C(F)(F)F)o3)cn2)c2ccccc2)CC1  human recombinant HDAC6 (Homo sapiens)                 6.55
2  N=S1(=O)CCN(C(=O)N(Cc2ncc(-c3nnc(C(F)F)o3)cc2F)c2cc(F)ccc2F)CC1  human recombinant HDAC6 (Homo sapiens)                 7.18
3  O=C(N=S1(=O)CCN(C(=O)N(Cc2ccc(-c3nnc(C(F)F)o3)cn2)c2ccccc2)CC1)OCc1ccccc1  human recombinant HDAC6 (Homo sapiens)                 7.04

###

molecular target: human recombinant HDAC6 (Homo sapiens, UniProt Q9UBN7); test: HDAC6 enzyme activity inhibition (fluorimetric, in vitro); conditions: samples at 0.1, 1, 10, 100 and 1000 nM
Sequence (Q9UBN7 whole entry): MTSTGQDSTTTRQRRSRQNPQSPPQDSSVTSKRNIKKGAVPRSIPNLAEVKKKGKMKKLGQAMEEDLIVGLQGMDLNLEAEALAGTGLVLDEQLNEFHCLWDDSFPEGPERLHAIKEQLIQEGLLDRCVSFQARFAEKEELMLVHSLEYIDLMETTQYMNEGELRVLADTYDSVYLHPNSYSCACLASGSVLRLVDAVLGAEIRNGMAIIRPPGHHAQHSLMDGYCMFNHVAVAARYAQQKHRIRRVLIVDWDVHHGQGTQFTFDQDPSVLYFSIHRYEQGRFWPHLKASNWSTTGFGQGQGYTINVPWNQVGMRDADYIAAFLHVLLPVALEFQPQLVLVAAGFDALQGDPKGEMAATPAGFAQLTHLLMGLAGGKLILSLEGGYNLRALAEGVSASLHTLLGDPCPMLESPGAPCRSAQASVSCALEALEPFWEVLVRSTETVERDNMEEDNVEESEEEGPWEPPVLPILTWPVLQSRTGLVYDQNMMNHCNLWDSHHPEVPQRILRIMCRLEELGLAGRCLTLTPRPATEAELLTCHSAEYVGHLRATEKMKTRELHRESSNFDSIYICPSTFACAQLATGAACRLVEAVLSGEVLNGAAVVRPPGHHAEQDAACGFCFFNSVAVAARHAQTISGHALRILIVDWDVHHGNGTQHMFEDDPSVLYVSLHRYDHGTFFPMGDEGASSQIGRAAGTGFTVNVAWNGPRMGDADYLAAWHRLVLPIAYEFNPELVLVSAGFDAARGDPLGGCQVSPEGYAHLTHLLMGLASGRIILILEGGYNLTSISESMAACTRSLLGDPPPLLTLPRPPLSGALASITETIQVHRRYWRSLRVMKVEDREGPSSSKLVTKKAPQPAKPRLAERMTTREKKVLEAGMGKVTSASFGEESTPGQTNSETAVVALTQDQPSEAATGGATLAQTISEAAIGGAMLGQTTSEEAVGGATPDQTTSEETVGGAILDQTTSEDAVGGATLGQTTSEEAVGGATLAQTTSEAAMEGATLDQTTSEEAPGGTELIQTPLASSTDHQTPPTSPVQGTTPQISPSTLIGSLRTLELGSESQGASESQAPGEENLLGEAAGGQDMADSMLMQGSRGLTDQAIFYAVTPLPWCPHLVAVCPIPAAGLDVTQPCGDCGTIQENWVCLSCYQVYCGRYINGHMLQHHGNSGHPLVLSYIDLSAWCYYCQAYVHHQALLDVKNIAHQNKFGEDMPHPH
pIC50: −log10 of the molar value.
measuredParameter: pIC50

>>> df
                                   compound  observedmeasurement
0  N=S1(=O)CCN(C(=O)N(Cc2ccc(-c3nnc(C(F)F)o3)cc2F)c2ccsc2)CC1 [Compound 26]                 7.01
1  N=S1(=O)CCN(C(=O)N(Cc2ccc(-c3nnc(C(F)F)o3)cc2F)c2cccc(F)c2)CC1 [Compound 13]                 7.36
2  O=C(N=S1(=O)CCN(C(=O)N(Cc2ccc(-c3nnc(C(F)F)o3)nn2)c2cccc(F)c2)CC1)OCc1ccccc1 [Compound 79]                 7.06
3  N=S1(=O)CCN(CCS(=O)(=O)N(Cc2ccc(-c3nnc(C(F)F)o3)cc2F)c2ccccc2)CC1 [Compound 74]                 7.20
4  N=S1(=O)CCN(C(=O)N(Cc2ccc(-c3nnc(C(F)F)o3)cc2F)c2cccc(-n3cccc3)c2)CC1 [Compound 34]                 7.04
5  N=S1(=O)CCN(C(=O)N(Cc2c(F)cc(-c3nnc(C(F)F)o3)cc2F)c2ccccc2F)CC1 [Compound 54]                 6.70
6  N=S1(=O)CCN(C(=O)N(Cc2ccc(-c3nnc(C(F)F)o3)cn2)c2cc(F)ccc2F)CC1 [Compound 45]                 7.20

###

target: human recombinant HDAC6 (Homo sapiens, UniProt Q9UBN7); assay: HDAC6 enzyme activity inhibition (fluorimetric, in vitro); details: samples at 0.1, 1, 10, 100 and 1000 nM
pIC50: −log10 of the molar value.
measuredParameter: pIC50

compound	observedMeasurement
N=S1(=O)CCN(S(=O)(=O)N(Cc2ccc(-c3nnc(C(F)F)o3)cc2F)c2cc(F)ccc2F)CC1 [Compound 69]	6.91
CS(=O)(=O)N=S1(=O)CCN(C(=O)N(Cc2ccc(-c3nnc(C(F)F)o3)cc2F)c2ccccc2)CC1 [Compound 37]	7.21
N=S1(=O)CC(N2C[C@@H]3C[C@H]2CN3c2c(N(Cc3ccc(-c4nnc(C(F)F)o4)cc3F)c3ccccc3)c(=O)c2=O)C1 (stereo partly shown) [Compound 89]	7.47
CC1CN(C(=O)N(Cc2ccc(-c3nnc(C(F)F)o3)cn2)c2ccc(F)cc2)CC(C)S1(=N)=O (stereo not shown) [Compound 64]	6.91
COc1cccc(N(Cc2ccc(-c3nnc(C(F)F)o3)cc2F)S(=O)(=O)N2CCS(=N)(=O)CC2)c1 [Compound 73]	7.14
N=S1(=O)CCN(C(=O)N(Cc2ccc(-c3nnc(C(F)F)o3)cc2F)c2ccc(Cl)c(Cl)c2)CC1 [Compound 42]	7.42
N=S1(=O)CCN(C(=O)N(Cc2ccc(-c3nnc(C(F)F)o3)cc2F)c2cccnc2)CC1 [Compound 66]	7.04

###

Recorded IC50 values for a group of compounds are listed next.
target: human recombinant HDAC6 (Homo sapiens); assay: HDAC6 enzyme activity inhibition (fluorimetric, in vitro); conditions: samples at 0.1, 1, 10, 100 and 1000 nM
measuredParameter: IC50 (nM)

In [3]: df
Out[3]:
                                    compound  measuredparameter  observedmeasurement
 0  N=S1(=O)CCN(C(=O)N(Cc2ncc(-c3nnc(C(F)F)o3)cc2F)c2ccc(Cl)cc2Cl)CC1 [Compound 50]               IC50                 66.4
 1  O=C(N=S1(=O)CCN(C(=O)N(Cc2ccc(-c3nnc(C(F)F)o3)cc2F)c2ccccc2)CC1)OCc1ccccc1 [Compound 4]               IC50                  390
 2  N=S1(=O)CCN(C(=O)N(Cc2ccc(-c3nnc(C(F)F)o3)cc2F)c2cccc(Br)c2)CC1 [Compound 41]               IC50                 28.9
 3  N=S1(=O)CCC(NC(=O)N(Cc2ccc(-c3nnc(C(F)F)o3)cc2F)c2ccccc2)CC1 (stereo not drawn) [Compound 59]               IC50                  116
 4  N=S1(=O)CCN(C(=O)N(Cc2ccc(-c3nnc(C(F)F)o3)cc2F)c2cccc(-c3cccnc3)c2)CC1 [Compound 47]               IC50                  185
 5  N=S1(=O)CCN(C(=O)N(Cc2ccc(-c3nnc(C(F)F)o3)cc2F)c2ccc(SC(F)(F)F)cc2)CC1 [Compound 21]               IC50                  294
 6  N=S1(=O)CCN(S(=O)(=O)N(Cc2ccc(-c3nnc(C(F)F)o3)cc2F)c2cccc(F)c2)CC1 [Compound 35]               IC50                 59.7
 7  N=S1(=O)CCN(C(=O)N(Cc2ccc(-c3nnc(C(F)F)o3)cc2F)c2cccc(-c3ccco3)c2)CC1 [Compound 44]               IC50                  130
 8  O=C(N1CCS(=O)(=NC(=O)C(F)(F)F)CC1)N(Cc1ccc(-c2nnc(C(F)F)o2)cn1)c1ccccc1 [Compound 2]               IC50                  168
 9  COc1cccc(N(Cc2ccc(-c3nnc(C(F)F)o3)cn2)S(=O)(=O)N2CCS(=N)(=O)CC2)c1 [Compound 72]               IC50                 78.8
10  COc1ccccc1N(Cc1ccc(-c2nnc(C(F)F)o2)cc1F)C(=O)N1CCS(=N)(=O)CC1 [Compound 25]               IC50                  141
11  N=S1(=O)CCN(C(=O)N(Cc2ccc(-c3nnc(C(F)F)o3)cc2F)c2cccc(C(F)(F)F)c2)CC1 [Compound 31]               IC50                 91.4
12  N=S1(=O)CCN(c2c(N(Cc3ccc(-c4nnc(C(F)F)o4)cc3F)c3ccccc3)c(=O)c2=O)CC1 [Compound 60]               IC50                 26.7
13  Cn1ccc2cc(N(Cc3ccc(-c4nnc(C(F)F)o4)cc3F)C(=O)N3CCS(=N)(=O)CC3)ccc21 [Compound 10]               IC50                  108
14  N=S1(=O)CC(N2C[C@@H]3C[C@H]2CN3C(=O)N(Cc2ccc(-c3nnc(C(F)F)o3)cn2)c2ccccc2)C1 (stereo partly drawn) [Compound 84]               IC50                   56

###

Molecular target: human recombinant HDAC6 (Homo sapiens, UniProt Q9UBN7)
Test: HDAC6 enzyme activity inhibition (fluorimetric, in vitro)
Settings: samples at 0.1, 1, 10, 100 and 1000 nM
Method: A HDAC enzyme inhibitory capacity of a test material was measured by using HDAC1 Fluorimetric Drug Discovery Assay Kit (Enzolifesciences: BML-AK511) and HDAC6 human recombinant (Calbiochem: 382180). […] For the test on the HDAC1 enzyme activity, human recombinant HDAC1 (BML-SE456) was used as a zymogen and Fluor de Lys®-SIRT1 (BNL-KI177) was used as a substrate. […] After that, a fluorescence value (Ex 360, Em 460) was measured with a multi-plate reader (FlexStation 3, Molecular Device). […]
measuredParameter: log10 of IC50 (log10 of the value in nM)

>>> df
                                    compound  observedmeasurement
 0  N=S1(=O)CCC(C(=O)N(Cc2ccc(-c3nnc(C(F)F)o3)cc2F)c2ccccc2)CC1 (centres unmarked) [Compound 8]                 2.29
 1  CC(=O)N=S1(=O)CCN(C(=O)N(Cc2ccc(-c3nnc(C(F)F)o3)cn2)c2ccccc2)CC1 [Compound 52]                 1.67
 2  N=S1(=O)CCN(C(=O)N(Cc2ccc(-c3nnc(C(F)F)o3)cn2)c2ccccc2F)CC1 [Compound 57]                 2.11
 3  N=S1(=O)CCN(C(=O)N(Cc2ccc(-c3nnc(C(F)F)o3)cn2)c2ccc(F)c(F)c2)CC1 [Compound 7]                 1.61
 4  N=S1(=O)CCN(C(=O)N(Cc2ccc(-c3nnc(C(F)F)o3)cc2F)c2ccc3c(c2)CCC3)CC1 [Compound 28]                 1.96
 5  N=S1(=O)CCN(C(=O)N(Cc2ccc(-c3nnc(C(F)F)o3)cn2)c2ccc(F)cc2)CC1 [Compound 62]                 1.95
 6  N=S1(=O)CCN(C(=O)N(Cc2ccc(-c3nnc(C(F)F)o3)cn2)c2cccs2)CC1 [Compound 16]                 1.63
 7  N=S1(=O)CCN(S(=O)(=O)N(Cc2ccc(-c3nnc(C(F)F)o3)cc2F)c2ccccc2)CC1 [Compound 18]                 1.51
 8  N=S1(=O)CCN(S(=O)(=O)N(Cc2ccc(-c3nnc(C(F)F)o3)cn2)c2ccccc2)CC1 [Compound 19]                 1.29
 9  N=S1(=O)CCN(C(=O)N(Cc2ccc(-c3nnc(C(F)F)o3)cc2F)c2ccc(F)cc2)CC1 [Compound 63]                 2.00
10  N=S1(=O)CCN(C(=O)N(Cc2ccccc2)Cc2ccc(-c3nnc(C(F)F)o3)cc2F)CC1 [Compound 24]                 3.00
